Field: GI50. Provide a value for each of the compounds that follow.
# System: EKVX
# method: NCI tumour cell line growth inhibition, 48 h
Activity calls are given as the source filed them. Cut-off read from the data, not from the text of the source: active = GI50 up to about 1.1 µM and inactive = higher.

Please fill in: GI50 reported for O=C(CCc1cccc(O)c1)NCCc1ccc(O)cc1 = > 100 µM (inactive)

Please fill in: GI50 reported for CCCc1cn2c(/C=N/NC(=N)N)c(-c3ccc([N+](=O)[O-])cc3)nc2s1 = 1.95 µM (inactive)

Please fill in: GI50 reported for CCc1nc(N)nc(N)c1-c1ccc(NC)c([N+](=O)[O-])c1 = 8.41 µM (inactive)

Please fill in: GI50 reported for O=C(CC1(O)C(=O)Nc2ccccc21)c1ccc(O)cc1O (stereo unspecified) = > 100 µM (inactive)

Please fill in: GI50 reported for O=C1C(CN2CCCC2)CCC1CN1CCCC1 (stereo unspecified) = > 49.7 µM (inactive)

Please fill in: GI50 reported for CC(C)CNC(=O)Cn1c(-c2ccccc2)cc2ccccc21 = > 100 µM (inactive)
